Ref: patent US10413535B2

experiment.notes: Toxicokinetics in 13-week topical ocular rabbit study
test.context: female, New Zealand White, in vivo, topical or ocular, 50 mg/mL/occasion, female rabbits, 50 mg/mL, 12 daily doses, Week 14, after the first daily dose
readout.label: Cmax (ng/mL)
Give the value in ng/mL but do not write ng/mL after it.

Please report the recorded Cmax for Cc1ccccc1OCC(=O)N[C@@H](CC(C)C)C(=O)N[C@@H](Cc1ccc(OC(=O)N2CCC(C(N)=O)CC2)cc1)C(=O)O [GW559090] .
68

* * *

experiment.notes: Toxicokinetics in 13-week topical ocular dog study
test.context: male, beagle, in vivo, topical or ocular, 50 mg/mL/occasion, male dogs, 50 mg/mL, 12 daily doses, Week 4, read-out: AUC0-1
readout.label: AUC(0-t) (ng·h/mL)
Write the value in ng·h/mL as a bare number.

# get_value(readout='AUC(0-t)', item= Cc1ccccc1OCC(=O)N[C@@H](CC(C)C)C(=O)N[C@@H](Cc1ccc(OC(=O)N2CCC(C(N)=O)CC2)cc1)C(=O)O [GW559090] )
11.8

* * *

experiment.notes: Toxicokinetics in 13-week topical ocular rabbit study
test.context: female, New Zealand White, in vivo, topical or ocular, 30 mg/mL/occasion, female rabbits, 30 mg/mL, 6 daily doses, Week 13, read-out: AUC0-24
readout.label: AUC(0-t) (µg·h/mL)
Respond numerically; units are µg·h/mL and should not be typed.

For the molecule shown here, Cc1ccccc1OCC(=O)N[C@@H](CC(C)C)C(=O)N[C@@H](Cc1ccc(OC(=O)N2CCC(C(N)=O)CC2)cc1)C(=O)O , give the reported AUC(0-t).
0.059

* * *

experiment.notes: Toxicokinetics in 13-week topical ocular dog study
test.context: female, beagle, in vivo, topical or ocular, 30 mg/mL/occasion, female dogs, 30 mg/mL, 6 daily doses, Week 4, read-out: AUC0-1
Procedure: GW559090A was given to Beagle Dogs by topical ocular administration for 13 weeks. Animals were dosed six or twelve times per day, with one hour between doses. Treatment groups were: (1) vehicle (12 times a day), (2) 30 mg/mL/occasion given six times a day, (3) 50 mg/mL/occasion given six times a day, or (4) 50 mg/mL/occasion, given 12 times a day. […]
readout.label: AUC(0-t) (ng·h/mL)
Express the result in ng·h/mL but write the number alone.

I would be grateful if you could share the reported AUC(0-t) for Cc1ccccc1OCC(=O)N[C@@H](CC(C)C)C(=O)N[C@@H](Cc1ccc(OC(=O)N2CCC(C(N)=O)CC2)cc1)C(=O)O .
4.28

* * *

experiment.notes: Toxicokinetics in 13-week topical ocular dog study
test.context: female, beagle, in vivo, topical or ocular, 30 mg/mL/occasion, female dogs, 30 mg/mL, 6 daily doses, Week 13, read-out: AUC0-1
readout.label: AUC(0-t) (ng·h/mL)
Hi! Could you send only the number? It should be in ng·h/mL, unit omitted.

Report AUC(0-t) for Cc1ccccc1OCC(=O)N[C@@H](CC(C)C)C(=O)N[C@@H](Cc1ccc(OC(=O)N2CCC(C(N)=O)CC2)cc1)C(=O)O [GW559090] please.
6.05

* * *

experiment.notes: Toxicokinetics in 13-week topical ocular rabbit study
test.context: female, New Zealand White, in vivo, topical or ocular, 50 mg/mL/occasion, female rabbits, 50 mg/mL, 12 daily doses, Week 14, read-out: AUC0-24
readout.label: AUC(0-t) (ng·h/mL)
Value expressed in ng·h/mL; do not type the unit.

// AUC(0-t) lookup, key: Cc1ccccc1OCC(=O)N[C@@H](CC(C)C)C(=O)N[C@@H](Cc1ccc(OC(=O)N2CCC(C(N)=O)CC2)cc1)C(=O)O
426

* * *

experiment.notes: Toxicokinetics in 13-week topical ocular rabbit study
test.context: male, New Zealand White, in vivo, topical or ocular, 30 mg/mL/occasion, male rabbits, 30 mg/mL, 6 daily doses, Week 13, read-out: AUC0-24
readout.label: AUC(0-t) (ng·h/mL)
The figure you give is taken to be in ng·h/mL; do not add the unit.

Data request, read-out AUC(0-t), for Cc1ccccc1OCC(=O)N[C@@H](CC(C)C)C(=O)N[C@@H](Cc1ccc(OC(=O)N2CCC(C(N)=O)CC2)cc1)C(=O)O
54.6

* * *

experiment.notes: Toxicokinetics in 13-week topical ocular dog study
test.context: male, beagle, in vivo, topical or ocular, 50 mg/mL/occasion, male dogs, 50 mg/mL, 12 daily doses, Week 13, read-out: AUC0-1
readout.label: AUC(0-t) (ng·h/mL)
Only the number, expressed in ng·h/mL, is required.

May I ask what AUC(0-t) has been recorded for Cc1ccccc1OCC(=O)N[C@@H](CC(C)C)C(=O)N[C@@H](Cc1ccc(OC(=O)N2CCC(C(N)=O)CC2)cc1)C(=O)O ?
10.2

* * *

experiment.notes: Toxicokinetics in 13-week topical ocular dog study
test.context: female, beagle, in vivo, topical or ocular, 50 mg/mL/occasion, female dogs, 50 mg/mL, 12 daily doses, Day 1, read-out: AUC0-24
readout.label: AUC(0-t) (ng·h/mL)
Answer in ng·h/mL, number only, no unit symbol.

Recorded AUC(0-t) of Cc1ccccc1OCC(=O)N[C@@H](CC(C)C)C(=O)N[C@@H](Cc1ccc(OC(=O)N2CCC(C(N)=O)CC2)cc1)C(=O)O , please.
153

* * *

experiment.notes: Toxicokinetics in 13-week topical ocular dog study
test.context: male, beagle, in vivo, topical or ocular, 30 mg/mL/occasion, male dogs, 30 mg/mL, 6 daily doses, Week 4
readout.label: Tmax (min)
// units = min; emit number, no label

I'd like to know its Tmax. The molecule in question is Cc1ccccc1OCC(=O)N[C@@H](CC(C)C)C(=O)N[C@@H](Cc1ccc(OC(=O)N2CCC(C(N)=O)CC2)cc1)C(=O)O
15

* * *

experiment.notes: Toxicokinetics in 13-week topical ocular dog study
test.context: male, beagle, in vivo, topical or ocular, 30 mg/mL/occasion, male dogs, 30 mg/mL, 6 daily doses, Week 13, read-out: Cmax
Description: GW559090A was given to Beagle Dogs by topical ocular administration for 13 weeks. Animals were dosed six or twelve times per day, with one hour between doses. Treatment groups were: (1) vehicle (12 times a day), (2) 30 mg/mL/occasion given six times a day, (3) 50 mg/mL/occasion given six times a day, or (4) 50 mg/mL/occasion, given 12 times a day. […]
readout.label: Cmax

Any idea what Cmax was measured for Cc1ccccc1OCC(=O)N[C@@H](CC(C)C)C(=O)N[C@@H](Cc1ccc(OC(=O)N2CCC(C(N)=O)CC2)cc1)C(=O)O [GW559090] ?
7.03 ng/mL

* * *

experiment.notes: Toxicokinetics in 13-week topical ocular dog study
test.context: male, beagle, in vivo, topical or ocular, 50 mg/mL/occasion, male dogs, 50 mg/mL, 12 daily doses, Day 1, read-out: AUC0-24
Description: GW559090A was given to Beagle Dogs by topical ocular administration for 13 weeks. Animals were dosed six or twelve times per day, with one hour between doses. Treatment groups were: (1) vehicle (12 times a day), (2) 30 mg/mL/occasion given six times a day, (3) 50 mg/mL/occasion given six times a day, or (4) 50 mg/mL/occasion, given 12 times a day. […]
readout.label: AUC(0-t) (ng·h/mL)
Supply the numeric figure in ng·h/mL, leaving out any unit text.

Can you share its AUC(0-t)? I mean this compound: Cc1ccccc1OCC(=O)N[C@@H](CC(C)C)C(=O)N[C@@H](Cc1ccc(OC(=O)N2CCC(C(N)=O)CC2)cc1)C(=O)O [GW559090]
439

* * *

experiment.notes: Toxicokinetics in 13-week topical ocular dog study
test.context: male, beagle, in vivo, topical or ocular, 50 mg/mL/occasion, male dogs, 50 mg/mL, 12 daily doses, Week 4, read-out: Cmax
readout.label: Cmax

Recorded Cmax of Cc1ccccc1OCC(=O)N[C@@H](CC(C)C)C(=O)N[C@@H](Cc1ccc(OC(=O)N2CCC(C(N)=O)CC2)cc1)C(=O)O , please.
23.8 ng/mL

* * *

experiment.notes: Toxicokinetics in 13-week topical ocular dog study
test.context: male, beagle, in vivo, topical or ocular, 50 mg/mL/occasion, male dogs, 50 mg/mL, 6 daily doses, Week 4, read-out: Cmax
Experimental: GW559090A was given to Beagle Dogs by topical ocular administration for 13 weeks. Animals were dosed six or twelve times per day, with one hour between doses. Treatment groups were: (1) vehicle (12 times a day), (2) 30 mg/mL/occasion given six times a day, (3) 50 mg/mL/occasion given six times a day, or (4) 50 mg/mL/occasion, given 12 times a day. […]
readout.label: Cmax (ng/mL)
Entry rule: numbers only, all in ng/mL.

Name the recorded Cmax for Cc1ccccc1OCC(=O)N[C@@H](CC(C)C)C(=O)N[C@@H](Cc1ccc(OC(=O)N2CCC(C(N)=O)CC2)cc1)C(=O)O .
24.2

* * *

test.target: α4β7-MAdCAM (Homo sapiens, UniProt P13612+P26010)
Construct: endogenous in cells
Sequence (P13612 34-1032): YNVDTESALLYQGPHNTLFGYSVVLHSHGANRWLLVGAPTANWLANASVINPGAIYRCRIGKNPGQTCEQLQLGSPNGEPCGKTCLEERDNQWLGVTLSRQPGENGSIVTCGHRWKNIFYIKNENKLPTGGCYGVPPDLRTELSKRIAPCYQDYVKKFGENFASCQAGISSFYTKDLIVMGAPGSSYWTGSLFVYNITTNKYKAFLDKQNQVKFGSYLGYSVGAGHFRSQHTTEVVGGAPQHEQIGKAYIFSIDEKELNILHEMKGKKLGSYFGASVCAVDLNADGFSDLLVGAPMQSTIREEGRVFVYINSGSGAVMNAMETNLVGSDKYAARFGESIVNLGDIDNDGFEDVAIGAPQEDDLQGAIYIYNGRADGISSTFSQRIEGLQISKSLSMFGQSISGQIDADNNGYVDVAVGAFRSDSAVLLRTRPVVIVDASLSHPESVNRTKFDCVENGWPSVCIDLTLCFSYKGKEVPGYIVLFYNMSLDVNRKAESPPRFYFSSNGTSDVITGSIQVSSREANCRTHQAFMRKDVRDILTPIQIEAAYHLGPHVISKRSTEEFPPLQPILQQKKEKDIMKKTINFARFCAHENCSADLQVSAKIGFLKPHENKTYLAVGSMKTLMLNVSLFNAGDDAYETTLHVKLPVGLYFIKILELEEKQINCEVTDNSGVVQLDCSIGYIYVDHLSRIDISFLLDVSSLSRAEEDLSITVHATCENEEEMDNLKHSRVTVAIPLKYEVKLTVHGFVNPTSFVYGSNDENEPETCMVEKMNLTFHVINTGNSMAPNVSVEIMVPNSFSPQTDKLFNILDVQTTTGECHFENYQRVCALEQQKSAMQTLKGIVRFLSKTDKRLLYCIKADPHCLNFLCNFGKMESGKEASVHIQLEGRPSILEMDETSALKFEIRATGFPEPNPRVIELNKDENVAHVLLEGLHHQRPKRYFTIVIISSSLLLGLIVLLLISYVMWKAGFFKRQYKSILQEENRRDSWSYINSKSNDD
Sequence (P26010 20-798): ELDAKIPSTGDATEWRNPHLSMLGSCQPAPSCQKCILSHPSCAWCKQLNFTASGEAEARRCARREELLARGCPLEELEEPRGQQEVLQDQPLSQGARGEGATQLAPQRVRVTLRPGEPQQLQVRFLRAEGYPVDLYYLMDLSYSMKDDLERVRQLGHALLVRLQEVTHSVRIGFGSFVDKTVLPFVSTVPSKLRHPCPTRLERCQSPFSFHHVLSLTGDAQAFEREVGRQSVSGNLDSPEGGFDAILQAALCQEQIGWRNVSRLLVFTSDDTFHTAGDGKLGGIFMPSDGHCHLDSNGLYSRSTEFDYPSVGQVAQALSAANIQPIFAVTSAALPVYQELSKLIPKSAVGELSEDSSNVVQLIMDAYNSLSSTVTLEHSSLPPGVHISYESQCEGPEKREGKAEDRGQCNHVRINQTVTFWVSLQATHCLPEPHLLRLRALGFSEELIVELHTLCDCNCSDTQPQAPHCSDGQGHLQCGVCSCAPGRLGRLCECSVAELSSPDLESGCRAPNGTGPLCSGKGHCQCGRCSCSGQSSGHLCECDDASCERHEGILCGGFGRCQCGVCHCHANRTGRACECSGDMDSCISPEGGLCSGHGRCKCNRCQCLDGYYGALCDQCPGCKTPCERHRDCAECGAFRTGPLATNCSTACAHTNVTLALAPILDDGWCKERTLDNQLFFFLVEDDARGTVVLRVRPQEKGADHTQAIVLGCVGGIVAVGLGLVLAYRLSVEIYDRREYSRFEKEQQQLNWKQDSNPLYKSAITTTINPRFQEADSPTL
experiment.notes: MAdCAM cell adhesion assay, RPMI 8866 cells
test.context: RPMI 8866 cells to MAdCAM; read-out: Inhibition of cell adhesion (IC50)
readout.label: IC50 (nM)
# number only, unit nM dropped from output

What value of IC50 has been recorded for this entry: Cc1ccccc1OCC(=O)N[C@@H](CC(C)C)C(=O)N[C@@H](Cc1ccc(OC(=O)N2CCC(C(N)=O)CC2)cc1)C(=O)O [GW559090]
23
